Hello, the source for this data is patent US20220016254A1, in case you need it.

Target: T1, human beta-Klotho (human, UniProt Q86Z14 1-1044)
T1 sequence (looked up): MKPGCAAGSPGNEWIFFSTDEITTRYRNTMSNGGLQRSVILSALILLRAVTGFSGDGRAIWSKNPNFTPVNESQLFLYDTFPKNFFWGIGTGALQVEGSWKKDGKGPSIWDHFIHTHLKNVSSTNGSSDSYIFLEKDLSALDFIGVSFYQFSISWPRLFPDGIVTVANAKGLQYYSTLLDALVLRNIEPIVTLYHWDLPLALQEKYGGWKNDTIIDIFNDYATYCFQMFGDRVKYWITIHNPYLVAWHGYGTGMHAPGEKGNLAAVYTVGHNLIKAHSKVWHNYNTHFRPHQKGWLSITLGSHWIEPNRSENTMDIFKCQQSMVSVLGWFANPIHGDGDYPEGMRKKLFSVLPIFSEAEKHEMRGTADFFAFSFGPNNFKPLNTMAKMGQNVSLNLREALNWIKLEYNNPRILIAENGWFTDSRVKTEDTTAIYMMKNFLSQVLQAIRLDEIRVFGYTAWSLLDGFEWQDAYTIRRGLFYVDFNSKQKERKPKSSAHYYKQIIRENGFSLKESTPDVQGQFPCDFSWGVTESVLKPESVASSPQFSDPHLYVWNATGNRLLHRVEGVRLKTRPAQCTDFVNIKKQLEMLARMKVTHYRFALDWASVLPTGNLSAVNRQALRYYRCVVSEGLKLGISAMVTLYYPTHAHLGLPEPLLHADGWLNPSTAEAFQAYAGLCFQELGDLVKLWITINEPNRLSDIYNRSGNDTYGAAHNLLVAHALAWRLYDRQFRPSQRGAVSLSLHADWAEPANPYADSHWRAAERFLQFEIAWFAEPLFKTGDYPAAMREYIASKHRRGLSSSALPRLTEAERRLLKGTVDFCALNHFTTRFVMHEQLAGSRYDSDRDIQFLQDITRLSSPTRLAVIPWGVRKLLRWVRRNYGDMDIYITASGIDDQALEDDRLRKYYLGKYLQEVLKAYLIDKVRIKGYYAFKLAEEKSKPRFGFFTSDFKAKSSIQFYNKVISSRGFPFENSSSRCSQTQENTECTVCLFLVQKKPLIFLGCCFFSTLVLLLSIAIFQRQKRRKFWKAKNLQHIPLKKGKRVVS
Experiment: cell-based or functional assay
readout.type: FGF21 activity (EC50, nM); p-ERK levels
Entry rule: numbers only, all in nM.

Solved cases (2 shown):
binder	FGF21 activity (EC50, nM); p-ERK levels
Compound 51 (ligand, Moiety B (HOOC-(CH2)20-CO-gGlu-2XADO-EDA-CO-CH2) on 51C and 222C of fusion polypeptide) HGEGTFTSDVSSYLEEQAAKEFIAWLVRGGGGGGGSGGGGSGGGGSGGGGCHPIPDSSPLLQFGGQVRQRYLYTDDAQQTEAHLEIREDGTVGGAADQSPESLLQLKALKPGVIQILGVKTSRFLCQRPDGALYGSLHFDPEACSFRELLLEDGYNVYQSEAHGLPLHLPGQKSPHRDPAPRGPARFLPLPGLPPALPEPPGILAPQPPDVGSSDPLSLVGCSQGRSPSYES	4.3
Compound 52 (ligand, Moiety B (HOOC-(CH2)20-CO-gGlu-2XADO-EDA-CO-CH2) on 51C and 225C of fusion polypeptide) HGEGTFTSDVSSYLEEQAAKEFIAWLVRGGGGGGGSGGGGSGGGGSGGGGCHPIPDSSPLLQFGGQVRQRYLYTDDAQQTEAHLEIREDGTVGGAADQSPESLLQLKALKPGVIQILGVKTSRFLCQRPDGALYGSLHFDPEACSFRELLLEDGYNVYQSEAHGLPLHLPGQKSPHRDPAPRGPARFLPLPGLPPALPEPPGILAPQPPDVGSSDPLSLVGGSQCRSPSYES	2.4

Return reported FGF21 activity (EC50, nM); p-ERK levels; argument: Compound 11 (ligand, Moiety A (HOOC-(CH2)16-CO-gGlu-2XADO) on 221K of fusion polypeptide) HGEGTFTSDVSSYLEEQAAREFIAWLVRGGGGGGGSGGGGSGGGGSGGGGSHPIPDSSPLLQFGGQVRQRYLYTDDAQQTEAHLEIREDGTVGGAADQSPESLLQLRALRPGVIQILGVRTSRFLCQRPDGALYGSLHFDPEACSFRELLLEDGYNVYQSEAHGLPLHLPGQRSPHRDPAPRGPARFLPLPGLPPALPEPPGILAPQPPDVGSSDPLSLVKPSQGRSPSYES
3.9
